B1: SLC35F2 (parent)
chain: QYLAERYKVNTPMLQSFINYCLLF

variants of: B1; experiment: protein stability index of a GFP-peptide fusion (GPS, HEK-293T) (PSI 1-6); higher = more stable; conditions: c terminus: a fixed tail appended;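 note: lentivirally expressed fusions sorted by FACS into six bins by GFP to DsRed ratio, PSI derived from sequencing read proportions per bin multiplied by bin number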

- VAR: "E5K"
  protein stability index: 1.96
- VAR: "F17Y"
  protein stability index: 2.14
- VAR: "I18N"
  protein stability index: 2.1
- VAR: "Q15K"
  protein stability index: 1.28
- VAR: "L22E"
  protein stability index: 3.47
- VAR: "N19F"
  protein stability index: 2.49
- VAR: "I18P"
  protein stability index: 3.3
- VAR: "N10M"
  protein stability index: 2.96
- VAR: "Q15V"
  protein stability index: 2.86
- VAR: "P12E"
  protein stability index: 2.52
- VAR: "T11I"
  protein stability index: 2.6
- VAR: "F24W"
  protein stability index: 2.19
- VAR: "Q1P"
  protein stability index: 1.77
- VAR: "Q1I"
  protein stability index: 2.1
- VAR: "F24C"
  protein stability index: 1.99
- VAR: "L14Q"
  protein stability index: 3.39
- VAR: "E5R"
  protein stability index: 3.95
- VAR: "Y2R"
  protein stability index: 2.1
- VAR: "Q15I"
  protein stability index: 1.67
- VAR: "T11K"
  protein stability index: 2.21
- VAR: "L3H"
  protein stability index: 2.5
- VAR: "L3C"
  protein stability index: 2.93
- VAR: "M13Y"
  protein stability index: 2.4
- VAR: "L3I"
  protein stability index: 3.32
- VAR: "K8L"
  protein stability index: 2.87
- VAR: "R6N"
  protein stability index: 3.2
